Field: Population Membrane Permeable-Phenotype (%). Provide a value for each of the molecules that follow.
tested on: U2OS; assay: Multiplex assay against U2OS; assay type: toxicity, cell-based; details: human, 24 h, 1 µM, compound concentration 1 uM, replicate 2
// units = %; emit number, no label

**Query** Recorded Population Membrane Permeable-Phenotype (%) of Nc1nc(-c2ccco2)c2cnn(Cc3ccccc3F)c2n1 , please.
**Result** 10

**Query** Recorded Population Membrane Permeable-Phenotype (%) of CN(C)C/C=C/C(=O)Nc1ccc(C(=O)N2CCCC(Nc3ncc(Cl)c(-c4c[nH]c5ccccc45)n3)C2)cc1 (stereo not given) , please.
**Result** 8

**Query** Recorded Population Membrane Permeable-Phenotype (%) of N[C@](CC1c2ccccc2Oc2ccccc21)(C(=O)O)[C@H]1C[C@@H]1C(=O)O , please.
**Result** 4

**Query** Recorded Population Membrane Permeable-Phenotype (%) of COc1cc(C(=O)N2CC[C@@H](O)[C@@H](N)C2)cc2nc(-c3cc4ccccc4n3CC3CC3)n(C)c12.Cl , please.
**Result** 17

**Query** Recorded Population Membrane Permeable-Phenotype (%) of COc1c(Nc2ccc(S(C)(=O)=O)nc2C)ncnc1OC1CCN(C(=O)OC(C)C)CC1 , please.
**Result** 8

---

system: U2OS; assay: Multiplex assay against U2OS; assay type: toxicity, cell-based; settings: human, 48 h, 10 µM, compound concentration 10 uM, replicate 1
PARAMETER: Population Tubulin-Different-Phenotype (%)
// units = %; emit number, no label

**Query** Recorded Population Tubulin-Different-Phenotype (%) of CC(C)(O)C(=O)N1CCN(c2ccc(C(F)(F)F)c(C3=C(c4c[nH]c5ccccc45)C(=O)NC3=O)c2)CC1 , please.
**Result** 11

**Query** Recorded Population Tubulin-Different-Phenotype (%) of S=C(NCCCc1c[nH]cn1)NCCCN(Cc1ccc(Cl)c(Cl)c1)c1ccc(Br)cn1 , please.
**Result** 26

**Query** Recorded Population Tubulin-Different-Phenotype (%) of COCCCN1CCC(NC(=O)c2cc(Cl)c(N)c3c2OCC3)CC1 [PRUCALOPRIDE] , please.
**Result** 2

**Query** Recorded Population Tubulin-Different-Phenotype (%) of Cc1ccc(OCC(O)C(C)NC(C)C)c2c1CCC2.Cl (configuration not stated) , please.
**Result** 6

**Query** Recorded Population Tubulin-Different-Phenotype (%) of O=C(O)CCC/C=C\CC1C(O)CC(O)C1/C=C/C(O)COc1cccc(Cl)c1 (configuration not stated) , please.
**Result** 4

**Query** Recorded Population Tubulin-Different-Phenotype (%) of Cl.Cl.OCCOCCN1CCN(C(c2ccccc2)c2ccc(Cl)cc2)CC1 (configuration not stated) [HYDROXYZINE HYDROCHLORIDE] , please.
**Result** 4

**Query** Recorded Population Tubulin-Different-Phenotype (%) of CCC(=O)OCC(=O)[C@@]1(OC(=O)CC)[C@@H](C)C[C@H]2[C@@H]3CCC4=CC(=O)C=C[C@]4(C)[C@@]3(Cl)[C@@H](O)C[C@@]21C [BECLOMETHASONE DIPROPIONATE] , please.
**Result** 14

**Query** Recorded Population Tubulin-Different-Phenotype (%) of COCCn1c(C)c(C)s/c1=N\C(=O)C1C(C)(C)C1(C)C , please.
**Result** 5

**Query** Recorded Population Tubulin-Different-Phenotype (%) of Cc1cc(NC(=O)NCCN2CCC(O)(Cc3ccccc3)CC2)c2ccccc2n1 , please.
**Result** 2

**Query** Recorded Population Tubulin-Different-Phenotype (%) of CCn1c(-c2nc3cc(C(=O)N4CCCC(N)C4)ccc3n2C)cc2ccccc21.Cl (configuration not stated) , please.
**Result** 11

**Query** Recorded Population Tubulin-Different-Phenotype (%) of CCc1nn2c(C)cc(C)nc2c1Cc1ccc(-c2nnc(C3CCNCC3)o2)cc1 , please.
**Result** 3

**Query** Recorded Population Tubulin-Different-Phenotype (%) of CN1CCN2c3ccccc3Cc3ccccc3C2C1.Cl (configuration not stated) [MIANSERIN HYDROCHLORIDE] , please.
**Result** 1

---

Field: Population Mitotic Cells (%). Provide a value for each of the compounds that follow.
system: HEK-293T; assay: Multiplex assay against HEK293T; format: toxicity, cell-based; settings: human, 24 h, 10 µM, compound concentration 10 uM, replicate 1
// units = %; emit number, no label

**Query** Recorded Population Mitotic Cells (%) of COc1ccc2[nH]c(I)c(CCNC(C)=O)c2c1 , please.
**Result** 67

**Query** Recorded Population Mitotic Cells (%) of COCCCN1CCC(NC(=O)c2cc(Cl)c(N)c3c2OCC3)CC1 [PRUCALOPRIDE] , please.
**Result** 71

**Query** Recorded Population Mitotic Cells (%) of O=C(NCCNCC(O)COc1ccc(O)cc1)N1CCOCC1.O=C(NCCNCC(O)COc1ccc(O)cc1)N1CCOCC1.O=C(O)/C=C/C(=O)O (centres undefined) [XAMOTEROL FUMARATE] , please.
**Result** 78

**Query** Recorded Population Mitotic Cells (%) of CC(C)C[C@H](CO)Nc1nc(S[C@@H](C)c2ccccc2)nc2nc(N)sc12 , please.
**Result** 45

**Query** Recorded Population Mitotic Cells (%) of COc1cc(C(=O)N2CC[C@@H](O)[C@@H](N)C2)cc2nc(-c3cc4ccccc4n3CC3CC3)n(C)c12.Cl , please.
**Result** 41

**Query** Recorded Population Mitotic Cells (%) of O=c1nc2[nH]c3ccccc3nc-2c(=O)[nH]1 , please.
**Result** 72

**Query** Recorded Population Mitotic Cells (%) of CCc1nn2c(C)cc(C)nc2c1Cc1ccc(-c2nnc(C3CCNCC3)o2)cc1 , please.
**Result** 30

**Query** Recorded Population Mitotic Cells (%) of Cc1cc(O)c(-c2ccc([C@@H](C)CN(C)C)cc2)c2c1[nH]c(=O)c1sccc12 , please.
**Result** 26

**Query** Recorded Population Mitotic Cells (%) of CN1CCN(c2ccc(Nc3c4ccccc4nc4ccccc34)cc2)CC1.Cl.Cl.O , please.
**Result** 0

---

Field: Total Cell Count. Provide a value for each of the compounds that follow.
system: Fibroblast; experiment: Multiplex assay against human fibroblast; assay type: toxicity, cell-based; conditions: 48 h, 1 µM, compound concentration 1 uM, replicate 1
Non-standard residues stand in square brackets, D forms with d. Residues, ends and D or L forms follow the SMILES beside them.
Simply state the number, no unit and no words.

**Query** Reported Total Cell Count for Fibroblast, given CC(C)C[C@@H]1NC(=O)[C@@H](C(C)C)NC(=O)[C@@H]2CCCN2C(=O)[C@@H](CC(=O)O)NC(=O)[C@@H](Cc2c[nH]c3ccccc23)NC1=O [BQ-123] (cyclo(L[dW][dD]P[dV])) ?
**Result** 109

**Query** Reported Total Cell Count for Fibroblast, given CN1CCC(C(=O)c2cccc(NC(=O)c3c(F)cc(F)cc3F)n2)CC1 ?
**Result** 164

**Query** Reported Total Cell Count for Fibroblast, given CC(C)(C)c1ccc(CSc2cnn(C(C)(C)C)c(=O)c2Cl)cc1 ?
**Result** 164

**Query** Reported Total Cell Count for Fibroblast, given COc1c(Nc2ccc(S(C)(=O)=O)nc2C)ncnc1OC1CCN(C(=O)OC(C)C)CC1 ?
**Result** 152

**Query** Reported Total Cell Count for Fibroblast, given Nc1nc(-c2ccco2)c2cnn(Cc3ccccc3F)c2n1 ?
**Result** 182

**Query** Reported Total Cell Count for Fibroblast, given CSc1nc(NC2CCCC2)c([N+](=O)[O-])c(NC2CCCC2)n1 ?
**Result** 134

**Query** Reported Total Cell Count for Fibroblast, given CC(C)C[C@H](CO)Nc1nc(S[C@@H](C)c2ccccc2)nc2nc(N)sc12 ?
**Result** 135

**Query** Reported Total Cell Count for Fibroblast, given CCCCCCNC(=O)Nc1ccc(S(=O)(=O)Nc2ccc(CCNC[C@H](O)COc3ccc(O)cc3)cc2)cc1 ?
**Result** 201

**Query** Reported Total Cell Count for Fibroblast, given O=C(O)CCC/C=C\CC1C(O)CC(O)C1/C=C/C(O)COc1cccc(Cl)c1 (stereo not given) ?
**Result** 156

**Query** Reported Total Cell Count for Fibroblast, given CC(F)(F)CN1CCOc2c(nn(-c3ccccc3Cl)c2-c2ccc(Cl)cc2)C1=O ?
**Result** 136

**Query** Reported Total Cell Count for Fibroblast, given CN1CCN(c2ccc(Nc3c4ccccc4nc4ccccc34)cc2)CC1.Cl.Cl.O ?
**Result** 144

**Query** Reported Total Cell Count for Fibroblast, given C[C@H](NC(=O)CNC(=O)c1cccc(Cl)c1)c1ccccc1 ?
**Result** 95

**Query** Reported Total Cell Count for Fibroblast, given Cl.Cl.OCCOCCN1CCN(C(c2ccccc2)c2ccc(Cl)cc2)CC1 (stereo not given) [HYDROXYZINE HYDROCHLORIDE] ?
**Result** 175

**Query** Reported Total Cell Count for Fibroblast, given Cc1cc(NC(=O)NCCN2CCC(O)(Cc3ccccc3)CC2)c2ccccc2n1 ?
**Result** 126

**Query** Reported Total Cell Count for Fibroblast, given CN(C)C(=O)Cn1cc(-c2ccc(-c3nnc4ccccn34)cc2)cn1 ?
**Result** 151

**Query** Reported Total Cell Count for Fibroblast, given O=c1ccc2ccc(OCCCCN3CCN(c4cccc5sccc45)CC3)cc2[nH]1 ?
**Result** 133

**Query** Reported Total Cell Count for Fibroblast, given CCn1c(-c2nc3cc(C(=O)N4CCCC(N)C4)ccc3n2C)cc2ccccc21.Cl (stereo not given) ?
**Result** 137

**Query** Reported Total Cell Count for Fibroblast, given O=C(Nc1cc(-c2ccccc2)nn1-c1ccccc1F)c1ccc([N+](=O)[O-])cc1 ?
**Result** 145

**Query** Reported Total Cell Count for Fibroblast, given Cc1sc2c(c1C)C(c1ccc(Cl)cc1)=N[C@H](CC(=O)OC(C)(C)C)c1nnc(C)n1-2 ?
**Result** 170

**Query** Reported Total Cell Count for Fibroblast, given Nc1nc(CC(=O)Nc2ccc(CCNC[C@H](O)c3ccccc3)cc2)cs1 ?
**Result** 176

**Query** Reported Total Cell Count for Fibroblast, given CCc1nn2c(C)cc(C)nc2c1Cc1ccc(-c2nnc(C3CCNCC3)o2)cc1 ?
**Result** 172

**Query** Reported Total Cell Count for Fibroblast, given O=c1nc2[nH]c3ccccc3nc-2c(=O)[nH]1 ?
**Result** 178

**Query** Reported Total Cell Count for Fibroblast, given O=C(NCCNCC(O)COc1ccc(O)cc1)N1CCOCC1.O=C(NCCNCC(O)COc1ccc(O)cc1)N1CCOCC1.O=C(O)/C=C/C(=O)O (stereo not given) [XAMOTEROL FUMARATE] ?
**Result** 131

**Query** Reported Total Cell Count for Fibroblast, given COC(c1ccccc1)(c1ccccc1)[C@H](Oc1nc(C)cc(C)n1)C(=O)O ?
**Result** 93

**Query** Reported Total Cell Count for Fibroblast, given COc1cc(Nc2ncc3c(n2)-c2ccc(Cl)cc2C(c2c(F)cccc2OC)=NC3)ccc1C(=O)O ?
**Result** 115

**Query** Reported Total Cell Count for Fibroblast, given COc1cc(C(=O)N2CC[C@@H](O)[C@@H](N)C2)cc2nc(-c3cc4ccccc4n3CC3CC3)n(C)c12.Cl ?
**Result** 161

**Query** Reported Total Cell Count for Fibroblast, given COc1ccc2[nH]c(I)c(CCNC(C)=O)c2c1 ?
**Result** 147

**Query** Reported Total Cell Count for Fibroblast, given Cc1cc(=O)n(C)c2cc(N3C(=O)CC[C@H](NS(=O)(=O)CC(C)C)[C@H]3c3ccc(Cl)cc3)ccc12 ?
**Result** 141

**Query** Reported Total Cell Count for Fibroblast, given CCC(=O)OCC(=O)[C@@]1(OC(=O)CC)[C@@H](C)C[C@H]2[C@@H]3CCC4=CC(=O)C=C[C@]4(C)[C@@]3(Cl)[C@@H](O)C[C@@]21C [BECLOMETHASONE DIPROPIONATE] ?
**Result** 132

**Query** Reported Total Cell Count for Fibroblast, given Cc1c(Cc2ccc3ccccc3n2)c2cc(F)ccc2n1CC(=O)O ?
**Result** 162
